Where do these numbers come from? They come from the supplement of paper PMC10567573.

B1: CLCN6 (parent)
chain: MAGCRGSLCCCCRWCCCCGERETR

- Variants of: B1
- experiment: protein stability index of a GFP-peptide fusion (GPS, HEK-293T) (PSI 1-6); higher = more stable;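 further: lentivirally expressed fusions sorted by FACS into six bins by GFP to DsRed ratio, PSI derived from sequencing read proportions per bin multiplied by bin number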
- measurement.context: c terminus: a fixed tail appended
So basically: protein stability index at 2 or higher? That is satisfied. Lower than 2? That is not satisfied.

# mutations, class.label
records = [
    ("T23G", "not satisfied"),
    ("G3V", "not satisfied"),
    ("C11F", "satisfied"),
    ("G6P", "not satisfied"),
    ("R21C", "satisfied"),
    ("R24G", "satisfied"),
    ("G6F", "not satisfied"),
    ("E20L", "satisfied"),
    ("L8C", "not satisfied"),
    ("M1S", "not satisfied"),
    ("C11I", "not satisfied"),
    ("R5E", "not satisfied"),
    ("A2V", "not satisfied"),
    ("C12D", "satisfied"),
    ("G19P", "satisfied"),
    ("M1E", "not satisfied"),
    ("C10F", "not satisfied"),
    ("C12P", "not satisfied"),
    ("R24M", "not satisfied"),
    ("G3R", "satisfied"),
    ("R5F", "satisfied"),
    ("L8G", "satisfied"),
]
